# assayed target: CDK7 CyclinH (Homo sapiens, UniProt P50613)
# Sequence (P50613 whole entry): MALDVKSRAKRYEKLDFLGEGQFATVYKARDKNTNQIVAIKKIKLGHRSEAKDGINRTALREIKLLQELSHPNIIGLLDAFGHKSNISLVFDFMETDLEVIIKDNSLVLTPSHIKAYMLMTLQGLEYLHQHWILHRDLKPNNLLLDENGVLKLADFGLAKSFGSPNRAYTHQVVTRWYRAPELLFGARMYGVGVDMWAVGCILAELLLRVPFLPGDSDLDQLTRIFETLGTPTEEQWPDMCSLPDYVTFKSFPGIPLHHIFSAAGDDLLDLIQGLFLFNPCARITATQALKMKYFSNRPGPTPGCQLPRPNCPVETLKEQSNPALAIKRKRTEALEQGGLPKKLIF
# Sequence (P51946 whole entry partner): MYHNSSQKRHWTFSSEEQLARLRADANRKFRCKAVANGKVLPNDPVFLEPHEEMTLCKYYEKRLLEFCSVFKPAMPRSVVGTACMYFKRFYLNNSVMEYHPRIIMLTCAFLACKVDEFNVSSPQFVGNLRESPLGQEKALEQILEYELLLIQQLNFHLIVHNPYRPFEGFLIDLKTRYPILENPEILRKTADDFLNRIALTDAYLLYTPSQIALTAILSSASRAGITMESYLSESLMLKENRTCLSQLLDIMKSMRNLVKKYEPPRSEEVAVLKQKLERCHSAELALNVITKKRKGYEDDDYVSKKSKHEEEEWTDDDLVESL
# Sequence (P51948 whole entry partner): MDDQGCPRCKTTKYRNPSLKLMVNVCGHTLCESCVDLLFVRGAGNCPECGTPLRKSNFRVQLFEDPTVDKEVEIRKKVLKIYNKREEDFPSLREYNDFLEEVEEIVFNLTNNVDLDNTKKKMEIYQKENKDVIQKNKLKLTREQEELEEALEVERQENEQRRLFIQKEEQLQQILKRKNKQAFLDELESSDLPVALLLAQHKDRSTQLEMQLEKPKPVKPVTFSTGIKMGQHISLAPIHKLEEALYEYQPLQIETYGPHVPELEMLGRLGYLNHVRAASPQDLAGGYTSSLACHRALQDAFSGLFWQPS
# procedure summary: CDK inhibition assay (microfluidic LabChip, IC50 format)
# Assay type: biochemical
# condition notes: Table 4b, lower part
measured endpoint: pIC50
Please express pIC50 as -log10 of the molar concentration.

[
  {
    "molecule": "CC1CN(c2ccc(Nc3ncc4c(n3)N(C3CCCC3)C(=O)[C@]3(CCNC3=O)C4)cc2)CC(C)N1 (stereo partly shown) [Example D199]",
    "measured endpoint": "pIC50",
    "recorded number": 6.39
  },
  {
    "molecule": "O=C1NCC[C@@]12Cc1cnc(Nc3ccc(N4CCC(N5CCOCC5)CC4)cn3)nc1N(C1CCCC1)C2=O [Example D181]",
    "measured endpoint": "pIC50",
    "recorded number": 4.39
  }
]

Shifting focus to the molecule that follows.
pIC50 measured on O=C1NCC[C@@]12Cc1cnc(Nc3ccc(N4CCN(C5CC5)CC4)cc3)nc1N(C1CCCC1)C2=O [Example D202] = 6.56

---

# procedure summary: Pharmacokinetics after oral administration
# Type: in vivo
# condition notes: rat, plasma; rats; oral administration 100 mg/kg; N = 3
measured endpoint: AUC (ng·h/mL)
Express your answer in ng·h/mL, writing the number without its unit.

Check out these entries, answers already filled in.
[
  {
    "smiles string": "CN1CCN(c2ccc(Nc3ncc4c(n3)N(C3CCCC3)C(=O)[C@]3(CCNC3=O)C4)cc2F)CC1",
    "AUC, ng·h/mL": 37700
  },
  {
    "smiles string": "CC(C)N1CCN(c2ccc(Nc3ncc4c(n3)N(C3CCCC3)C(=O)[C@]3(CCNC3=O)C4)cc2)CC1",
    "AUC, ng·h/mL": 21500
  }
]

Shifting focus to the compound that follows.
AUC measured on CN(C)CCOc1ccc(Nc2ncc3c(n2)N(C2CCCC2)C(=O)[C@]2(CCNC2=O)C3)cc1 = 14200

---

# assayed target: UniProt:P24941
Listed here are compounds together with their documented pIC50.
Please express pIC50 as -log10 of the molar concentration.

Check out these entries, answers already filled in.
[
  {
    "smiles string": "CC(C)N1CCN(c2ccc(Nc3ncc4c(n3)N(C3CCCC3)C(=O)[C@]3(CCNC3=O)C4)cc2F)CC1",
    "assayed target": "UniProt:P24941",
    "pIC50": 6.97
  },
  {
    "smiles string": "O=C1NCC[C@@]12Cc1cnc(Nc3ccc(N4CCNCC4)cc3)nc1N(C1CCCC1)C2=O",
    "assayed target": "UniProt:P24941",
    "pIC50": 6.98
  },
  {
    "smiles string": "CN1CCN(c2ccc(Nc3ncc4c(n3)N(C3CCCC3)C(=O)[C@]3(CCNC3=O)C4)cc2F)CC1",
    "assayed target": "UniProt:P24941",
    "pIC50": 7.00
  },
  {
    "smiles string": "O=C1NCC[C@]12Cc1cnc(Nc3ccc(N4CCNCC4)c(F)c3)nc1N(C1CCCC1)C2=O",
    "assayed target": "UniProt:P24941",
    "pIC50": 5.25
  }
]

Shifting focus to the compound that follows.
pIC50 measured on O=C1NCC[C@@]12Cc1cnc(Nc3ccc(N4CCNCC4)c(F)c3)nc1N(C1CCCC1)C2=O = 7.20

---

Listed here are compounds together with their documented Cmax.
# procedure summary: Pharmacokinetics after oral administration
# Assay type: in vivo
# condition notes: rat, plasma; rats; oral administration 100 mg/kg; N = 3
Express your answer in µg/mL, writing the number without its unit.

[
  {
    "compound": "CN(C)CCOc1ccc(Nc2ncc3c(n2)N(C2CCCC2)C(=O)[C@]2(CCNC2=O)C3)cc1 [Example D179]",
    "readout units": "µg/mL",
    "Cmax": 3.36
  },
  {
    "compound": "CC(C)N1CCN(c2ccc(Nc3ncc4c(n3)N(C3CCCC3)C(=O)[C@]3(CCNC3=O)C4)cc2)CC1 [Example D145]",
    "readout units": "µg/mL",
    "Cmax": 4.47
  }
]

Shifting focus to the compound that follows.
Cmax measured on CN1CCN(c2ccc(Nc3ncc4c(n3)N(C3CCCC3)C(=O)[C@]3(CCNC3=O)C4)cc2F)CC1 [Example D52] = 4.35

---

Listed here are molecules together with their documented IC50.
# Test system: MEXF MDA-MB-435
# procedure summary: 2D cell proliferation assay (CellTiter-Blue)
# Format: cell-based
# condition notes: Homo sapiens, 72 h, three days of treatment, read-out: abs. IC50
The reply should read as a number followed by its unit.

Check out these entries, answers already filled in.
[
  {
    "smiles string": "CN(C)[C@H]1CCN(c2ccc(Nc3ncc4c(n3)N(C3CCCC3)C(=O)[C@]3(CCNC3=O)C4)nc2)C1",
    "result": "18.3 µM"
  },
  {
    "smiles string": "CN(C)CCOc1ccc(Nc2ncc3c(n2)N(C2CCCC2)C(=O)[C@]2(CCNC2=O)C3)cc1",
    "result": "0.102 µM"
  }
]

IC50 measured on O=C1NCC[C@@]12Cc1cnc(Nc3ccc(N4CCNCC4)cc3F)nc1N(C1CCCC1)C2=O = 0.875 µM

IC50 measured on CC(C)N1CCN(c2ccc(Nc3ncc4c(n3)N(C3CCCC3)C(=O)[C@]3(CCNC3=O)C4)nc2)CC1 = 16 µM

---

# Test system: MEXF A-375
# procedure summary: 2D cell proliferation assay (CellTiter-Blue)
# Assay type: cell-based
# condition notes: Homo sapiens, 72 h, three days of treatment, read-out: abs. IC50
measured endpoint: IC50 (nM)
Express your answer in nM, writing the number without its unit.

[
  {
    "smiles string": "CN(C)CCOc1ccc(Nc2ncc3c(n2)N(C2CCCC2)C(=O)[C@]2(CCNC2=O)C3)cc1",
    "measured endpoint": "IC50",
    "readout units": "nM",
    "recorded number": 61
  },
  {
    "smiles string": "CN(C)[C@H]1CCN(c2ccc(Nc3ncc4c(n3)N(C3CCCC3)C(=O)[C@]3(CCNC3=O)C4)nc2)C1",
    "measured endpoint": "IC50",
    "readout units": "nM",
    "recorded number": 769
  },
  {
    "smiles string": "O=C1NCC[C@@]12Cc1cnc(Nc3ccc(N4CCNCC4)cc3F)nc1N(C1CCCC1)C2=O",
    "measured endpoint": "IC50",
    "readout units": "nM",
    "recorded number": 263
  }
]

Shifting focus to the compound that follows.
Test item CC(C)N1CCN(c2ccc(Nc3ncc4c(n3)N(C3CCCC3)C(=O)[C@]3(CCNC3=O)C4)nc2)CC1 ; MEXF A-375; reported IC50 was 254

---

# assayed target: CDK6-CYCLIND3 (Homo sapiens, UniProt Q00534)
# Construct: purchased Carna
# Sequence (Q00534 whole entry): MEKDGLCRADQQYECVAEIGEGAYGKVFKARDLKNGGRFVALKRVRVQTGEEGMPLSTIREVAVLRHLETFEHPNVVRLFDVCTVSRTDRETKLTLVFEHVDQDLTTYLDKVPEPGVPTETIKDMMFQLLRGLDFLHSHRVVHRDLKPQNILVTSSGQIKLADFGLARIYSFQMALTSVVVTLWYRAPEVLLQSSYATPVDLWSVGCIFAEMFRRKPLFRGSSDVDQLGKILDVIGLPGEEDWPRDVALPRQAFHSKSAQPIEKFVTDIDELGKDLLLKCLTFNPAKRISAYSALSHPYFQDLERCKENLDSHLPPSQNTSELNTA
# Sequence (P30281 whole entry partner): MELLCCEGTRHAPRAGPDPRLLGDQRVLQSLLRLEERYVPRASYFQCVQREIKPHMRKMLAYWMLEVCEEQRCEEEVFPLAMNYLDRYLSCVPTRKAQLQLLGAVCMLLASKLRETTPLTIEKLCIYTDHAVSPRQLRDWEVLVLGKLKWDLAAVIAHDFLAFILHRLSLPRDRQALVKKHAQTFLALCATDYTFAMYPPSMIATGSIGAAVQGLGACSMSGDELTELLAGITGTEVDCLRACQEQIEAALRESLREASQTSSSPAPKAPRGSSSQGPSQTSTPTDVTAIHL
# procedure summary: CDK inhibition assay (microfluidic LabChip, IC50 format)
# Format: biochemical
# condition notes: Table 4a; read-out: CDK6 CyclinD3 IC50
Mark YES only for IC50 values smaller than 4 nM; exact matches and larger values are NO.

Completed entries (count: 3):
[
  {
    "smiles string": "Cc1cc(N2CCN(C(C)C)CC2)ccc1Nc1ncc2c(n1)N(C1CCCC1)C(=O)[C@]1(CCNC1=O)C2",
    "class": "NO"
  },
  {
    "smiles string": "CC(C)N1CCN(c2ccc(Nc3ncc4c(n3)N(C3CCCC3)C(=O)[C@]3(CCNC3=O)C4)cc2)CC1",
    "class": "YES"
  },
  {
    "smiles string": "O=C1NCC[C@@]12Cc1cnc(Nc3ccc(OCCN4CCCC4)c(F)c3)nc1N(C1CCCC1)C2=O",
    "class": "NO"
  }
]

QUERY: # check: IC50 < 4 nM for COc1cc(Nc2ncc3c(n2)N(C2CCCC2)C(=O)[C@]2(CCNC2=O)C3)ccc1N1CCNCC1
RESULT: NO

QUERY: # check: IC50 < 4 nM for CCN1CCN(Cc2ccc(Nc3ncc4c(n3)N(C3CCCC3)C(=O)[C@]3(CCNC3=O)C4)nc2)CC1
RESULT: NO

QUERY: # check: IC50 < 4 nM for CN1CCN(c2ccc(Nc3ncc4c(n3)N(C3CCCC3)C(=O)[C@]3(CCNC3=O)C4)cn2)CC1
RESULT: YES

QUERY: # check: IC50 < 4 nM for COc1cc(N2CCN(C)CC2)ccc1Nc1ncc2c(n1)N(C1CCCC1)C(=O)[C@]1(CCNC1=O)C2
RESULT: NO

QUERY: # check: IC50 < 4 nM for COc1cc(Nc2ncc3c(n2)N(C2CCCC2)C(=O)[C@]2(CCNC2=O)C3)ccc1N1CCN(C(C)C)CC1
RESULT: YES

QUERY: # check: IC50 < 4 nM for CN1CCN(c2ccc(Nc3ncc4c(n3)N(C3CCCC3)C(=O)[C@]3(CCNC3=O)C4)cc2)CC1
RESULT: YES

QUERY: # check: IC50 < 4 nM for O=C1NCC[C@@]12Cc1cnc(Nc3ccc(N4CC5(CNC5)C4)c(F)c3)nc1N(C1CCCC1)C2=O
RESULT: NO
